src = patent US20060045953A1

target: hT1R2/hT1R3 sweet receptor (Homo sapiens, UniProt Q7RTX0+Q8TE23); construct: expressed in transfected cells; host or cells: HEK293 derivative stably expressing Gα15, clone S-9; experiment: In vitro hT1R2/hT1R3 sweet taste receptor activation assay (FLIPR, dose response); format: cell-based; conditions: Table E, Sweet Enhancer Amides; read-out: Sweet EC50
Sequence (Q8TE23 20-839): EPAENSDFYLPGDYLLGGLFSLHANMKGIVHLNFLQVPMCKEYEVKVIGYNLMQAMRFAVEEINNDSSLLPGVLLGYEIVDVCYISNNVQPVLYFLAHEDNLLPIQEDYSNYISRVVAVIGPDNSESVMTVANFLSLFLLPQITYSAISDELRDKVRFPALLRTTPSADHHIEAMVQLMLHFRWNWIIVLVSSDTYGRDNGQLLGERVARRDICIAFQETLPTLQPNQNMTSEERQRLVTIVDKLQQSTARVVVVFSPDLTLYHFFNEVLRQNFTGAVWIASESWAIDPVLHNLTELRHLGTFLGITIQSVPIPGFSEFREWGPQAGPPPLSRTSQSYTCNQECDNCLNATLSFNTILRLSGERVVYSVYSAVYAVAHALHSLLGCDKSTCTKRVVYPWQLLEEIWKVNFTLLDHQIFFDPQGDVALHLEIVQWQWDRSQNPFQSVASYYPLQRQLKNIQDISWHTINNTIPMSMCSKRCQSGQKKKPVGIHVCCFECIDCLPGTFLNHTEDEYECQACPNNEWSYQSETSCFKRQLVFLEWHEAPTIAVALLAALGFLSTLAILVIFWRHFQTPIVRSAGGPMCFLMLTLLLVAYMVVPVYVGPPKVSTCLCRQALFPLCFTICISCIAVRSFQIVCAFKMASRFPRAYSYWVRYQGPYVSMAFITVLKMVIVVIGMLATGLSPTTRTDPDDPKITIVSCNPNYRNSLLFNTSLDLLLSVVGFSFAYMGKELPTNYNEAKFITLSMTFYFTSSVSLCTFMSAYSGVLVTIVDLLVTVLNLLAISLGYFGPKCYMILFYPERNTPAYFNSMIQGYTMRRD
Sequence (Q7RTX0 21-852): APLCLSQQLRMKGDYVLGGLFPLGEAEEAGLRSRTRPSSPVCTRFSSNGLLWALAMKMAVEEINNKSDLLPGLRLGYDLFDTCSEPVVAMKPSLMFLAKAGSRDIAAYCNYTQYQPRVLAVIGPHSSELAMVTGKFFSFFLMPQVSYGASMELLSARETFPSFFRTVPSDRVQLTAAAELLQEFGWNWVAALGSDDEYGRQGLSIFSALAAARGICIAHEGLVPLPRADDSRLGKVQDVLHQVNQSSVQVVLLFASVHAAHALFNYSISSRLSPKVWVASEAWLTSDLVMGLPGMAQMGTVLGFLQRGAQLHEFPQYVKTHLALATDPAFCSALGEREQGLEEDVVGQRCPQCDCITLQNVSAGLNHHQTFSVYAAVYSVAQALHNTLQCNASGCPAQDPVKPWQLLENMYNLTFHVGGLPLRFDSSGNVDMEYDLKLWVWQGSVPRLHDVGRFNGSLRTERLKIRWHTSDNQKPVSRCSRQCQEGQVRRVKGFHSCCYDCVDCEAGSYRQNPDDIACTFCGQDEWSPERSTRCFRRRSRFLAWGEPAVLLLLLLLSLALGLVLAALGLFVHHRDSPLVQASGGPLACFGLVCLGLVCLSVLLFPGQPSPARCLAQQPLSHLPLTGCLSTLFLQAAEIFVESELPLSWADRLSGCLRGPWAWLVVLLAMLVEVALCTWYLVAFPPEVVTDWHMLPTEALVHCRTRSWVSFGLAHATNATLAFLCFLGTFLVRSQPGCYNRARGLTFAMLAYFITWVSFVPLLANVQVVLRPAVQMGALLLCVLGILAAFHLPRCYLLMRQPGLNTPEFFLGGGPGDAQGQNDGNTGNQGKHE
We begin with a simple list: items and their reported EC50.
METRIC NAME: EC50 (nM)

MOLECULE	RESULT NUMBER
COc1c(Cl)ccc(Cl)c1C(=O)Nc1ccccc1F	830
CCc1nocc1C(=O)N[C@@H]1CCCc2c(C)cc(C)cc21	1240
O=C(Nc1ccc(F)cc1F)c1cc(Cl)ccc1O	2560
CC1CCCC(NC(=O)Cc2c(F)c(F)c(F)c(F)c2F)C1C (stereo not shown)	3620
C=CCc1c(F)c(F)c(C(=O)N[C@@H](C)C(C)(C)C)c(F)c1F	430
CC1CCCC(NC(=O)c2cccc(Cl)c2Cl)C1C (stereo not shown)	3990
Cc1c(F)c(F)c(C(=O)N[C@@H]2CC3CCC2C3)c(F)c1F (stereo partly shown)	1020
O=C(N[C@@H]1CCCc2ccccc21)c1cc(O)ccc1O	6040
COc1c(Cl)ccc(Cl)c1C(=O)NC1CCCCC1C (stereo not shown)	770
CC1CCC(NC(=O)c2ccc(F)c(C(F)(F)F)c2)CC1 (stereo not shown)	2370

---

Below is a list of entries, each paired with its recorded EC50 value.
biological target: hT1R1/hT1R3 umami receptor (Homo sapiens, UniProt Q7RTX0+Q7RTX1); construct: expressed in transfected cells; host or cells: HEK293 derivative stably expressing Gα15, clone I-17, expression induced with mifepristone; assay: In vitro hT1R1/hT1R3 umami taste receptor activation assay (FLIPR, dose response); format: cell-based; details: Table A, Umami Amides; read-out: Umami EC50
Sequence (Q7RTX1 21-841): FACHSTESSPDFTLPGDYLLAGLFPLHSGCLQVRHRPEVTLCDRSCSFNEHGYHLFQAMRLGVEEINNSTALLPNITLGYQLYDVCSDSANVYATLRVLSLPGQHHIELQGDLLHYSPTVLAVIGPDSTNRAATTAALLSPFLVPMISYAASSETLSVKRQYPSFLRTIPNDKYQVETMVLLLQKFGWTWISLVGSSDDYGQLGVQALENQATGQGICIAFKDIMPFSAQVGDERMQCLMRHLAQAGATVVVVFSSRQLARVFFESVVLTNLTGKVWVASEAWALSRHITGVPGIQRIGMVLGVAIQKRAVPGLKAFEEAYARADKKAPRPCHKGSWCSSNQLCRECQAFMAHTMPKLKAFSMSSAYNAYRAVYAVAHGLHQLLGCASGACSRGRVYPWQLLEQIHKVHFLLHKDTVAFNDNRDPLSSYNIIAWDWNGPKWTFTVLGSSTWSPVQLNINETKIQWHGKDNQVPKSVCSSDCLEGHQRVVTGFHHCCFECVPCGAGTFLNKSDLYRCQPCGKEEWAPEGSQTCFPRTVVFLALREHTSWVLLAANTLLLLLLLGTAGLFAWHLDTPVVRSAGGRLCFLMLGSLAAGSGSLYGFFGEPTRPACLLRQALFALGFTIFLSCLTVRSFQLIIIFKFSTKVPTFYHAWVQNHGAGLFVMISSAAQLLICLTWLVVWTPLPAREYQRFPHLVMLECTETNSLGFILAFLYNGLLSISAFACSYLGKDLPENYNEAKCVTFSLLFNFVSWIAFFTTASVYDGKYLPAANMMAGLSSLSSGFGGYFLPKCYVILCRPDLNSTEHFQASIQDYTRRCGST
Sequence (Q7RTX0 21-852): as the sequence (Q7RTX0 21-852) above
METRIC NAME: EC50 (µM)

COMPOUND	TARGET DESC	METRIC NAME	RESULT NUMBER
CCCC(CCC)NC(=O)c1cccc(C)c1 [Example A83, (heptan-4-yl)-3-methylbenzamide]	hT1R1/hT1R3 umami receptor (Homo sapiens, UniProt Q7RTX0+Q7RTX1)	EC50	0.52
COC(=O)c1ccc(NC(=O)c2c(Cl)ccc(Cl)c2OC)cc1 [Example A2]	hT1R1/hT1R3 umami receptor (Homo sapiens, UniProt Q7RTX0+Q7RTX1)	EC50	0.93
CCCC(CCC)NC(=O)c1cc2cc(OC)ccc2o1 [Example A10]	hT1R1/hT1R3 umami receptor (Homo sapiens, UniProt Q7RTX0+Q7RTX1)	EC50	0.91
CCC(NC(=O)c1ccc(OC)c(C)c1)c1ccc(OC)cc1 (stereo not drawn) [Example A96]	hT1R1/hT1R3 umami receptor (Homo sapiens, UniProt Q7RTX0+Q7RTX1)	EC50	0.76
COc1cc(C(=O)N[C@@H]2CCCc3ccccc32)nc(OC)n1 [Example A114]	hT1R1/hT1R3 umami receptor (Homo sapiens, UniProt Q7RTX0+Q7RTX1)	EC50	2.35
CCCC(CC)NC(=O)c1ccc(C)c(SC)c1 (stereo not drawn) [Example A81]	hT1R1/hT1R3 umami receptor (Homo sapiens, UniProt Q7RTX0+Q7RTX1)	EC50	0.5
O=C(N[C@H]1CCOc2ccccc21)c1cccc(Cl)c1O [Example A115]	hT1R1/hT1R3 umami receptor (Homo sapiens, UniProt Q7RTX0+Q7RTX1)	EC50	5
CCCC(CCC)NC(=O)c1cccc(C(F)(F)F)c1 [Example A70]	hT1R1/hT1R3 umami receptor (Homo sapiens, UniProt Q7RTX0+Q7RTX1)	EC50	0.33
CCOC(=O)[C@@H]1CCCC[C@H]1NC(=O)c1cc2cc(OC)ccc2o1 [Example A15]	hT1R1/hT1R3 umami receptor (Homo sapiens, UniProt Q7RTX0+Q7RTX1)	EC50	1.14
